Kindly state log10(Ki) for each of the entries shown.
- target or test system: Cyclin-dependent kinase 2/cyclin E1 (Homo sapiens)
- assay procedure: Inhibition of full length N-terminal GST-tagged human CDK2 (1 to 298 residues)/cyclin E1 (1 to 410 residues) expressed in Sf21 cells using histone H1 as substrate preincubated for 10 mins followed by substrate and ATP addition and measured after 60 mins by ADP-Glo reagent based microplate reader assay
Values reflect log10 of reported Ki (nM).

Identify the reported log10(Ki) for the following entry. CC(C)c1cnn2c3nc(nc12)N(CCC1CNC1)CCCCCOc1cc(S(C)(=O)=O)ccc1CN3
1.55

For the molecule CC(C)c1cnn2c3nc(nc12)N(C[C@@H]1CNC[C@H]1O)CCCCCOc1ccccc1CN3 , report log10(Ki).
-0.15

Fill in reported log10(Ki) for this entry: CC(C)c1cnn2c3nc(nc12)N(CC1CNC1)CCCCCOc1ccc(F)cc1CN3
0.00

Tell me log10(Ki) reported for CC(C)c1cnn2c3nc(nc12)N(CC1CNC1)CCCCCOc1cc(C(F)(F)F)ccc1CN3
1.19

Indicate the recorded log10(Ki) value for this molecule: CC(C)c1cnn2c3nc(nc12)N(CC1CNC1)CCCCCOc1cc(F)c(F)cc1CN3
0.53

Identify the reported log10(Ki) for the following entry. CC(C)c1cnn2c3nc(nc12)N(CC1CNC1)CCCCCOc1cc(S(C)(=O)=O)ccc1CN3
0.00

Please report the measured log10(Ki) for CC(C)c1cnn2c3nc(nc12)N(CC1CCNCC1)CCCCCOc1cc(S(C)(=O)=O)ccc1CN3
0.69

Specify measured log10(Ki) for CC(C)c1cnn2c3nc(nc12)N(CC1CCNCC1)CCCCCOc1ccc(S(C)(=O)=O)cc1CN3 .
1.92

---

Assignment: determine reported pKi for the given compounds.
- target or test system: Cyclin-dependent kinase 2/cyclin E1 (Homo sapiens)
- assay procedure: Inhibition of full length N-terminal GST-tagged human CDK2 (1 to 298 residues)/cyclin E1 (1 to 410 residues) expressed in Sf21 cells using histone H1 as substrate preincubated for 10 mins followed by substrate and ATP addition and measured after 60 mins by ADP-Glo reagent based microplate reader assay
Please treat pKi as minus the base-10 logarithm of the molar concentration.

Supply reported pKi belonging to this compound: CC(C)c1cnn2c3nc(nc12)N(CC1CCNCC1)CCCCCOc1ccc(F)cc1CN3
8.51

Assign pKi to the following record: CC(C)c1cnn2c3nc(nc12)N(CC(C)(C)CN)CCCCCOc1ccccc1CN3
7.30

Please list pKi recorded for the compound CC(C)c1cnn2c3nc(nc12)N(CC1CNC1)CCCCCOc1ccccc1CN3
8.52

Note down pKi recorded for CC(C)c1cnn2c3nc(nc12)N(CC1CCCNC1)CCCCCOc1ccccc1CN3 (configuration not stated)
7.34

Return reported pKi. Input compound: CC(C)c1cnn2c3nc(nc12)N(CC1CCNCC1)CCCCCOc1ccc(C(F)(F)F)cc1CN3
7.03

Provide pKi value for the following compound: CC(C)c1cnn2c3nc(nc12)N(CCC1CNC1)CCCCCOc1ccccc1CN3
7.32

---

- target or test system: CDK7/Cyclin H/MNAT1 (Homo sapiens, UniProt P50613)
- Sequence (P51946 whole entry): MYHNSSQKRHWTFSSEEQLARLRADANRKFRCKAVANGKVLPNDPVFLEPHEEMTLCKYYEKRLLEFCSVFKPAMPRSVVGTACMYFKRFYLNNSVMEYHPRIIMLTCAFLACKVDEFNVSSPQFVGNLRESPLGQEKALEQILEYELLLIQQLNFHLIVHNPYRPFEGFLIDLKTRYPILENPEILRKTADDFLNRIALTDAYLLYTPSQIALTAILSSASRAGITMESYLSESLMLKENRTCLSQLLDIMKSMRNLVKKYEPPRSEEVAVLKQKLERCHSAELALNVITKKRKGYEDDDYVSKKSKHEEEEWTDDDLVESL
- Sequence (P50613 whole entry): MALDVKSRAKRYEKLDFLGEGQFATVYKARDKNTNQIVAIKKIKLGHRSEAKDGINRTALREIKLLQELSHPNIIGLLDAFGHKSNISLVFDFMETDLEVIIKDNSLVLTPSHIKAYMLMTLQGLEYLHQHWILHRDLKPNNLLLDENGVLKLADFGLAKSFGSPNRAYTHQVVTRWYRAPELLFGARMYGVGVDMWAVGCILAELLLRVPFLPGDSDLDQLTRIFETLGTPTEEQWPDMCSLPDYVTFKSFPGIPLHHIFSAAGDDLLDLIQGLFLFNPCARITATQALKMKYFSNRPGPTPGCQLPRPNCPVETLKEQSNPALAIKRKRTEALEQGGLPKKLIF
- Sequence (P51948 whole entry, further chain): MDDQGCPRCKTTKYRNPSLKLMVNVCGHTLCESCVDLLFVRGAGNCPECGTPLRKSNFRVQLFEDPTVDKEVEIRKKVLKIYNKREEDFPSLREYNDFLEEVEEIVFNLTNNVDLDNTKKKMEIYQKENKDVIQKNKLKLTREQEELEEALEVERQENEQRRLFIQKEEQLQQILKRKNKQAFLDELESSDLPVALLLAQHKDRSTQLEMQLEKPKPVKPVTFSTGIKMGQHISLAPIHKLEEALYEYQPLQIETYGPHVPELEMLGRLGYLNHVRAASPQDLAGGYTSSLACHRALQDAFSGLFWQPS
- assay procedure: Inhibition of recombinant human His-tagged CDK7/cyclin H/MNAT1 expressed in baculovirus expression system using histone H1 as substrate preincubated for 10 mins followed by substrate and ATP addition and measured after 60 mins by ADP-Glo reagent based microplate reader assay
outcome measure: pKi
// pKi: -log10(molar conc.)

# return recorded pKi for entry CC(C)c1cnn2c3nc(nc12)N(CC1CCNCC1)CCCCCOc1cc(C#N)ccc1CN3
7.36

Given CC(C)c1cnn2c3nc(nc12)N(CC1CCN(C)CC1)CCCCCOc1ccccc1CN3 , respond with its pKi.
7.22

Give me measured pKi, please, for this compound: CC(C)c1cnn2c3nc(nc12)N(C[C@@H]1CNC[C@H]1O)CCCCCOc1ccccc1CN3
8.55

Name the recorded pKi of the compound listed here: CC(C)c1cnn2c3nc(nc12)N(CC1CCNCC1)CCCCCOc1cc(S(C)(=O)=O)ccc1CN3
7.67

Tell me its pKi given CC(C)c1cnn2c3nc(nc12)N(CC1CCNCC1)CCCCCOc1cc(C(F)(F)F)ccc1CN3 as the entry.
6.79

Tell me pKi reported for CC(C)c1cnn2c3nc(nc12)N(CC1CNC1)CCCCCOc1ccccc1CN3
7.00

Respond only with pKi recorded for CC(C)c1cnn2c3nc(nc12)N(CC1CCNC1)CCCCCOc1ccccc1CN3 (configuration not stated)
8.02
